Listed here: items and their measured growth inhibition.
- experiment: NCI Yeast Anticancer Drug Screen. Data for the mlh1 rad18 strain (AID 175)
- condition_context: S. cerevisiae mlh1 rad18 strain growth inhibition; at 50.0 µM (retest, dose inferred, filed as 5.0); hits give high values
The panel holds about 79,000 compounds, 15% with a hit somewhere; the sample as a whole holds those more often.
// note: answer is a bare numeric in %

Past entries and their recorded results:
1) COc1cccc(C=Nc2ccc(I)cc2)c1O.COc1cccc(C=Nc2ccc(I)cc2)c1O.[Co] | 37
2) COC(=O)c1cn(NS(=O)(=O)c2ccc(OC)cc2)cc1C(=O)OC | 6
3) CCCCCCCCCCCCCCCCN(C)c1ccc(S(=O)(=O)O)cc1[N+](=O)[O-] | 73
4) Cc1cc2ccccc2c[n+]1Cc1ccc2ccccc2n1 | 41
5) Oc1ccccc1C1N(Cc2ccc(Cl)cc2)CCN1Cc1ccc(Cl)cc1 | 70

Now look at this one.
Qu. Entry under review: BrC1(c2ccccc2)C[n+]2c(-c3ccccc3)cc(-c3ccccc3)cc2-c2ccccc21 (stereo not given) . Reported growth inhibition?
Ans. 99

Just for reference, PubChem BioAssay (NCI) is where these values come from.
